Target: GST tagged LXRbeta LBD (ligand binding domain) (Homo sapiens, UniProt P55055)
Construct: purchased Invitrogen pv4658.pps
Test: LanthaScreen TR-FRET Liver X Receptor Coactivator Assay, LXR beta-LBD (co-activator recruitment; IP and % Emax relative to T0901317)
Format: biochemical
Conditions: efficacy at max dose in relation to reference T0901317, LXR beta-LBD; read-out: LXR beta actiivty at max dose (%)
From the text: […]
experimental endpoint: Emax (%)
Kindly answer with a numeric value in %, unit omitted.

Some compounds with recorded Emax:
CN(C)C(=O)c1ccc(N2CCC(CCCN(C)C(=O)[C@](O)(c3cccc(C(F)(F)F)c3)C(F)(F)F)CC2)nc1Cl	50
CN(C)C(=O)c1ccc(N2CCC(CCCNC(=O)C(O)(c3ccccc3)C(F)(F)F)CC2)nc1Cl (centres unmarked)	105

Exercise: Return reported Emax; argument: COc1cccc([C@@](O)(C(=O)N(C)CCCC2(C)CCN(c3ccc(C(=O)N(C)C)c(Cl)c3)CC2)C(F)(F)F)c1
Key: 20

Exercise: Next entry: CCOc1cccc([C@@](O)(C(=O)NCCCC2CCN(c3ccc(C(=O)N(C)C)c(Cl)n3)CC2)C(F)(F)F)c1
Key: 58

Exercise: Next entry: CNC(=O)c1ccc(N2CCC3(CC2)C[C@H]3CCN(C)C(=O)[C@](O)(c2ccccc2)C(F)(F)F)cc1Cl (single isomer, unassigned) [Example 7-7]
Key: 64

Exercise: Next entry: COc1cccc([C@@](O)(C(=O)NC[C@@H](C)CC2CCN(c3ccc(C(=O)N(C)C)c(Cl)n3)CC2)C(F)(F)F)c1
Key: 87

Exercise: Next entry: CN(C)C(=O)c1ccc(N2CCC3(CC2)CC3CCCNC(=O)C(C)(C)c2ccccc2)cc1Cl (centres unmarked)
Key: 57

Exercise: Next entry: COc1cccc([C@@](O)(C(=O)N(C)CCCC2CCN(c3ccc(C(=O)N(C)C(C)C)c(Cl)n3)CC2)C(F)(F)F)c1
Key: 61

Exercise: Next entry: CN(C)C(=O)c1ccc(N2CCC([C@H]3C[C@H]3CN(C)C(=O)[C@](O)(c3cccc(C(F)(F)F)c3)C(F)(F)F)CC2)nc1Cl
Key: 53

---

Target: GST tagged LXRbeta LBD (ligand binding domain) (Homo sapiens)
Construct: purchased Invitrogen pv4658.pps
Test: LanthaScreen TR-FRET Liver X Receptor Coactivator Assay, LXR beta-LBD (co-activator recruitment; IP and % Emax relative to T0901317)
Type: biochemical
Details: efficacy at max dose in relation to reference T0901317, LXR beta-LBD; read-out: LXR beta actiivty at max dose (%)
Each record here notes measured Emax.
Kindly answer with a numeric value in %, unit omitted.

CN(C)C(=O)c1ccc(N2CCC(CCCNC(=O)[C@](O)(c3ccccc3)C(F)(F)F)CC2)nc1Cl [Example 5-8]	104

Exercise: Return reported Emax; argument: CN(C)C(=O)c1ccc(N2CCC(C)(CCCN(C)C(=O)[C@](O)(c3ccccc3)C(F)(F)F)CC2)cc1Cl [Example 9-7]
Key: 42

Exercise: Next entry: CN(C)C(=O)c1ccc(N2CCC(CCCNC(=O)[C@@]3(c4ccccc4)CCCO3)CC2)nc1Cl [Example 5-18]
Key: 66

Exercise: Next entry: CN(C)C(=O)c1ccc(N2CCC(CCCN(C)C(=O)[C@@](O)(c3cccc(OC4CC4)c3)C(F)(F)F)CC2)nc1Cl [Example 1-35]
Key: 46

---

Each record here notes measured EC50.
Biological target: GST tagged LXRbeta LBD (ligand binding domain) (Homo sapiens, UniProt P55055)
Test: LanthaScreen TR-FRET Liver X Receptor Coactivator Assay, LXR beta-LBD (co-activator recruitment; IP and % Emax relative to T0901317)
Settings: Inflection Point of co-activator recruitment, LXR beta-LBD, TR-FRET
Kindly answer with a numeric value in µM, unit omitted.

Some compounds with recorded EC50:
CN(C)C(=O)c1ccc(N2CCC(CCCN(C)C(=O)[C@](O)(c3cccc(OC4CC4)c3)C(F)(F)F)CC2)nc1Cl	0.105
CN(C)C(=O)c1ccc(N2CCC(C[C@H]3C[C@H]3CN(C)C(=O)[C@](O)(c3ccccc3)C(F)(F)F)CC2)nc1Cl	0.131
CN(C)C(=O)c1ccc(N2CCC(CCCN(C)C(=O)[C@](O)(c3cc(F)cc(Cl)c3)C(F)(F)F)CC2)nc1Cl	0.013
CNC(=O)c1ccc(N2CCC([C@H]3C[C@H]3CNC(=O)[C@](O)(c3ccccc3)C(F)(F)F)CC2)nc1Cl	1.33
COc1cccc([C@@](O)(C(=O)N(C)CCCC2CCN(c3ccc(C(=O)N4C(C)CCC4C)c(Cl)n3)CC2)C(F)(F)F)c1 (some centres unmarked)	0.134

Exercise: Return reported EC50; argument: CN(C)C(=O)c1ccc(N2CCC(CCCN(C)C(=O)[C@@](O)(c3cccc(OC(F)(F)F)c3)C(F)(F)F)CC2)nc1Cl
Key: 0.567

Exercise: Next entry: CN(C)C(=O)c1ccc(N2CCC(CCCNC(=O)[C@@](O)(c3cccc(O)c3)C(F)(F)F)CC2)nc1Cl
Key: 0.314

Exercise: Next entry: CC(C)NC(=O)c1ccc(N2CCC3(CC2)C[C@H]3CCN(C)C(=O)[C@](O)(c2ccccc2)C(F)(F)F)cc1Cl
Key: 1.62

Exercise: Next entry: COc1cccc([C@@](O)(C(=O)N(C)CC[C@H]2CC23CCN(c2ccc(C(=O)NC4CC4)c(Cl)c2)CC3)C(F)(F)F)c1
Key: 0.109

---

Each record here notes measured pEC50.
Molecular target: GST tagged LXRbeta LBD (ligand binding domain) (Homo sapiens)
Test: LanthaScreen TR-FRET Liver X Receptor Coactivator Assay, LXR beta-LBD (co-activator recruitment; IP and % Emax relative to T0901317)
Details: Inflection Point of co-activator recruitment, LXR beta-LBD, TR-FRET
The value called pEC50 is obtained by taking minus log10 of the concentration in mol/L.

CC(C)=C(C(=O)N(C)CCCC1CCN(c2ccc(C(=O)N(C)C)c(Cl)n2)CC1)c1ccccc1	5.86
CN(C)C(=O)c1ccc(N2CCC(CCCN(C)C(=O)[C@@](O)(c3cccc(C4CC4)c3)C(F)(F)F)CC2)nc1Cl	6.58
COc1cccc([C@@](O)(C(=O)N(C)CCCC2CCN(c3ccc(C(=O)N(C)C(C)C)c(Cl)n3)CC2)C(F)(F)F)c1	7.62

Exercise: Return reported pEC50; argument: CN(C)C(=O)c1ccc(N2CCC(C)(CCCN(C)C(=O)[C@](O)(c3cccc(OC(F)(F)F)c3)C(F)(F)F)CC2)nc1Cl
Key: 7.37

---

Molecular target: GST tagged LXRbeta LBD (ligand binding domain) (Homo sapiens, UniProt P55055)
Construct: purchased Invitrogen pv4658.pps
Sequence (P55055 222-460 limits assumed): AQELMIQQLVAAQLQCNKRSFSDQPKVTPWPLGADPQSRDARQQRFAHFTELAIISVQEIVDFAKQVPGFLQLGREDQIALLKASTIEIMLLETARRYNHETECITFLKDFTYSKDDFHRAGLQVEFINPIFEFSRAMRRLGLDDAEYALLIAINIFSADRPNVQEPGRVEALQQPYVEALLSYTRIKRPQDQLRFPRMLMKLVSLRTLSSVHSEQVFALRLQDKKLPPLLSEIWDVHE
Test: LanthaScreen TR-FRET Liver X Receptor Coactivator Assay, LXR beta-LBD (co-activator recruitment; IP and % Emax relative to T0901317)
Format: biochemical
Settings: Inflection Point of co-activator recruitment, LXR beta-LBD, TR-FRET
experimental endpoint: EC50 (nM)
Kindly answer with a numeric value in nM, unit omitted.

CCOc1cccc([C@@](O)(C(=O)N(C)C[C@@H]2C[C@@H]2C2CCN(c3ccc(C(=O)N(C)C)c(Cl)n3)CC2)C(F)(F)F)c1	34

Now, please, on to the next compound.
Exercise: Lab note: need EC50 for CN(C)C(=O)c1ccc(N2CCC(CCCN(C)C(=O)C(O)(c3ccccc3)C(F)(F)F)CC2)cc1Cl (single isomer, unassigned) [Example 4-4] on GST tagged LXRbeta LBD (ligand binding domain) (Homo sapiens, UniProt P55055), anyone have it?
Key: 45

---

Biological target: GST tagged LXRalpha LBD (ligand binding domain) (Homo sapiens, UniProt Q13133)
Construct: purchased Invitrogen pv4655
Sequence (Q13133 209-447 limits assumed): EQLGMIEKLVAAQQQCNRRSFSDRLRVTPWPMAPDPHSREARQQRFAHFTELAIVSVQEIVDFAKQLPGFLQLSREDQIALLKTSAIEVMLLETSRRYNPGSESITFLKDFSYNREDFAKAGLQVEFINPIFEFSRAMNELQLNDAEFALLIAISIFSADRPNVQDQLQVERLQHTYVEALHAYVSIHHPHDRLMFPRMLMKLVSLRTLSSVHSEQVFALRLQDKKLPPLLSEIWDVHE
Experiment: LanthaScreen TR-FRET Liver X Receptor Coactivator Assay, LXR alpha-LBD (co-activator recruitment; IP and % Emax relative to T0901317)
Type: biochemical
Conditions: efficacy at max dose in relation to reference T0901317, LXR alpha-LBD; read-out: LXR alpha actiivty at max dose (%)
Rule: Emax below 9% gives TRUE. Equal to or above 9% gives FALSE.

CN(C)C(=O)c1ccc(N2CCC3(CC2)CC3CCN(C)C(=O)[C@](O)(c2ccccc2)C(F)(F)F)cc1Cl (stereo partly shown)	FALSE
COc1cccc([C@@](O)(C(=O)N(C)CCCC2CCN(c3ccc(C(=O)N4CC[C@H](CO)C4)c(Cl)n3)CC2)C(F)(F)F)c1	FALSE
COc1cccc([C@@](O)(C(=O)N(C)CCCC2CCN(c3ccc(C(=O)N(C)C)c(C)n3)CC2)C(F)(F)F)c1	TRUE
COc1cccc([C@]2(C(=O)N(C)CCCC3CCN(c4ccc(C(=O)N(C)C)c(Cl)n4)CC3)CCCO2)c1	TRUE
CN(C)C(=O)c1ccc(N2CCC([C@H]3C[C@@H](N(C)C(=O)[C@](O)(c4cccc(OC5CC5)c4)C(F)(F)F)C3)CC2)nc1Cl	TRUE

Exercise: Please state whether Emax is below 9% for COc1cccc([C@@](O)(C(=O)NC[C@H](F)CC2CCN(c3ccc(C(=O)N(C)C)c(Cl)n3)CC2)C(F)(F)F)c1
Key: FALSE

Exercise: Next entry: CC(C)C(O)(C(=O)NCCCC1CCN(c2ccc(C(=O)N(C)C)c(Cl)c2)CC1)C(F)(F)F (stereo not shown)
Key: FALSE

Exercise: Next entry: CN(C)C(=O)c1ccc(N2CCC(CCCN(C)C(=O)[C@](O)(c3cccc(OC(F)F)c3)C(F)(F)F)CC2)nc1Cl
Key: FALSE

Exercise: Next entry: COc1cccc([C@@](O)(C(=O)N(C)CC2CC3(CCN(c4ccc(C(=O)N(C)C)c(Cl)n4)CC3)C2)C(F)(F)F)c1
Key: TRUE

Exercise: Next entry: CN(C)C(=O)c1ccc(N2CCC([C@@H]3C[C@H]3CN(C)C(=O)[C@](O)(c3ccccc3)C(F)(F)F)CC2)nc1Cl
Key: FALSE

Exercise: Next entry: CNC(=O)c1ccc(N2CCC([C@H]3C[C@H]3CNC(=O)[C@](O)(c3cccc(OC)c3)C(F)(F)F)CC2)nc1Cl
Key: TRUE

Exercise: Next entry: COc1cccc([C@@](O)(C(=O)NC2CC(CC3CCN(c4ccc(C(=O)N(C)C)c(Cl)c4)CC3)C2)C(F)(F)F)c1 (stereo partly shown)
Key: TRUE
